assay target: Pim-1 kinase (Homo sapiens (Human))
Sequence (P11309 whole entry): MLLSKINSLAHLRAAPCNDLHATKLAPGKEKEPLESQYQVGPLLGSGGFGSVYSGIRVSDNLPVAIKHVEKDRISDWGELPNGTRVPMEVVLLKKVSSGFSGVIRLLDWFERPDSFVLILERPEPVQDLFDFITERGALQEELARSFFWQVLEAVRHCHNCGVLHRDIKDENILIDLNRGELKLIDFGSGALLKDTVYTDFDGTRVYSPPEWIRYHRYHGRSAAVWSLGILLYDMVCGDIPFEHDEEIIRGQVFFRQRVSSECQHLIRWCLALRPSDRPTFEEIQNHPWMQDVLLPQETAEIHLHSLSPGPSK
assay metric: pIC50
Answer as the number alone; pIC50 is minus log10 of concentration in mol/L.

Return reported pIC50; argument: C[C@]1(O)CC[C@H](Nc2ccc3nnc(-c4cccc(OC(F)(F)F)c4)n3c2)CC1
5.78
